Every entry's value here was drawn from patent US9981920B2.

Measured pKd values are reported for all entries that follow.
system: HDAC2 (Homo sapiens)
experiment_notes: Reporter displacement assay (HDAC2 Kd)
test_parameters: HDAC2 with C-terminal HIS-Tag 20 nM, 180 nM reporter probe, read after 4 h; Kd by Cheng Prusoff from probe displacement
pKd: −log10 of the molar value.
measured_property: pKd

In [3]: df
Out[3]:
                                   molecule  measured_property      reported
0  Nc1ccc(C(=O)CSc2nc(O)c(-c3ccccc3)c(=O)[nH]2)cc1 [Compound 122]                pKd  6.00 to 7.00
1  Cn1c(SCC(=O)c2ccc(F)cc2)nc(O)cc1=O [Compound 141]                pKd  6.00 to 7.00
2  COc1ccc(C(=O)CSc2nc(O)c(-c3ccccc3)c(=O)[nH]2)cc1 [Compound 121]                pKd  6.00 to 7.00
3  Cc1ccc(C(=O)CSc2nc(C)cc(=O)[nH]2)cc1 [Compound 104]                pKd  6.00 to 7.00
4  Cc1ccc(C(=O)CSc2nc(O)c3ccccc3n2)cc1 [Compound 100]                pKd  5.00 to 6.00
5  CCn1c(SCC(=O)c2ccc(NC(C)=O)cc2)nc(O)cc1=O [Compound 117]                pKd        > 7.00

###

Measured pKd values are reported for all entries that follow.
system: HDAC2 (Homo sapiens, UniProt Q92769)
Sequence (Q92769 whole entry): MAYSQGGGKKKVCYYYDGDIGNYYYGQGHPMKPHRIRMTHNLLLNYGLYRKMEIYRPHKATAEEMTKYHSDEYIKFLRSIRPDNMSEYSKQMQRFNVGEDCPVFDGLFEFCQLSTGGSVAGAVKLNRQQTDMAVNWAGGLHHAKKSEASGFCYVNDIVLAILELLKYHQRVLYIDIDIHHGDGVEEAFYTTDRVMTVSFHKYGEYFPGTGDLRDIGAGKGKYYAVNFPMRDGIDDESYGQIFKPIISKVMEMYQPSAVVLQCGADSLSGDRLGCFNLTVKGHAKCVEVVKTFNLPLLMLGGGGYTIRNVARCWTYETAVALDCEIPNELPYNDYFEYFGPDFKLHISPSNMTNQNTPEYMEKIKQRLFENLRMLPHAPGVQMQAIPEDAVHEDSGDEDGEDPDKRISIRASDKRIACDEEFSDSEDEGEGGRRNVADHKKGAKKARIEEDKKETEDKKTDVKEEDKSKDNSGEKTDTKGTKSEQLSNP
experiment_notes: Reporter displacement assay (HDAC2 Kd)
test_parameters: HDAC2 with C-terminal HIS-Tag 20 nM, 180 nM reporter probe, read after 4 h; Kd by Cheng Prusoff from probe displacement
pKd: −log10 of the molar value.
measured_property: pKd

In [3]: df
Out[3]:
                                smiles_input      reported
 0  CC(=O)Nc1ccc(C(=O)CSc2nc(O)cc(=O)n2C)cc1        > 7.00
 1  O=C(CSc1nc(O)cc(=O)[nH]1)c1ccc(N2CCCC2=O)cc1        > 7.00
 2        Cn1c(SCC(=O)c2cccc(F)c2)nc(O)cc1=O        > 7.00
 3  CC(C)C(=O)Nc1ccc(C(=O)CSc2nc(O)cc(=O)[nH]2)cc1        > 7.00
 4     Cc1ccc(C(=O)CSc2nc(=O)c3ccccc3n2C)cc1  6.00 to 7.00
 5  Cc1ccc(C(=O)CSc2nc(O)c(-c3ccccc3)c(=O)[nH]2)cc1        > 7.00
 6  CC(=O)Nc1ccc(C(=O)CSc2nc(O)c(C3CCCC3)c(=O)[nH]2)cc1        > 7.00
 7      Cc1ccc(C(=O)CSc2nc(O)cc(=O)[nH]2)cc1        > 7.00
 8    Cc1ccc(C(=O)CSc2nc(O)cc(=O)n2C(C)C)cc1  6.00 to 7.00
 9        Cc1cccc(C(=O)CSc2nc(O)cc(=O)n2C)c1  6.00 to 7.00
10  CC(=O)Nc1ccc(C(=O)CSc2nc(O)cc(=O)n2C(C)C)cc1        > 7.00
11      Nc1ccc(C(=O)CSc2nc(O)cc(=O)[nH]2)cc1  6.00 to 7.00
12          CCn1c(SCC(=O)c2ccccc2)nc(O)cc1=O        > 7.00
13  O=C(CSc1nc(O)cc(=O)[nH]1)c1ccc(NC(=O)c2ccccc2)cc1  6.00 to 7.00
14  CN(C)c1ccc(C(=O)CSc2nc(O)cc(=O)[nH]2)cc1  6.00 to 7.00
15  CC(=O)Nc1ccc(C(=O)CSc2nc(O)c(-c3ccccc3)c(=O)[nH]2)cc1        > 7.00
16   CCc1c(O)nc(SCC(=O)c2ccc(OC)cc2)[nH]c1=O        > 7.00
17       Cn1c(SCC(=O)c2cccc(Cl)c2)nc(O)cc1=O  6.00 to 7.00
18  CC(=O)Nc1ccc(C(=O)CSc2nc(O)cc(=O)n2C2CCCC2)cc1        > 7.00
19  CC(C)(C)OC(=O)Nc1ccc(C(=O)CSc2nc(O)c(-c3ccccc3)c(=O)[nH]2)cc1  6.00 to 7.00
